- Tested on: Escherichia coli
- MEASUREMENT PARAMETERS: Concentration 32 ug.mL-1;; ASSAY_TEST Inhibition of Bacterial Growth; detection method Absorption (OD600); MEDIA CAMHB; plate type 384well; NBS; CORNING #3640; time 18 hr
- Description: Antibacterial activity against Escherichia coli ATCC 25922 (CO-ADD:GN_001); MIC in CAMBH media using NBS plates, by OD(600)
Potency and affinity values are given separately.
# reported Inhibition; entries follow
VALUE KIND: Inhibition (%)

1) CCOC(=O)c1ccc(NC(=O)Cn2nc3ccc(SCc4ccc(Cl)cc4)nn3c2=O)cc1    -11.17
2) CCc1ccc(NC(=O)CSc2nnc3ccc(C(=O)Nc4cccc(F)c4)cn23)cc1    -4.13
3) Cc1ccc(N(Cc2cc(F)cc(F)c2)S(=O)(=O)c2cccn3c(C)nnc23)cc1    -4.21
4) COc1ccc(CNC(=O)CSc2nnc3c4cc(-c5ccc(C)cc5)nn4ccn23)cc1    -3.09
5) COc1ccc(-c2cc3c4nnc(SCC(=O)NCc5ccc(Cl)cc5)n4ccn3n2)cc1    -4.94
6) COc1ccc(NC(=O)c2ccc3nn(CC(=O)Nc4ccc(C(C)=O)cc4)c(=O)n3c2)cc1    -1.93
7) O=C(Cn1nc2c(Sc3ccccc3)nccn2c1=O)Nc1ccc(Br)cc1F    -2.08
8) O=C(CSc1nc2ccccc2n2cnnc12)Nc1ccc2c(c1)OCCO2    5.63
9) COc1ccc(CCn2c(=O)c3sccc3n3c(=O)n(Cc4c(F)cccc4Cl)nc23)cc1OC    -5.54
10) Cc1cc2nn(CC(=O)Nc3cc(F)ccc3C)c(=O)n2c(Nc2ccc(C)c(F)c2)n1    -8.01
11) CC(=O)c1ccc(NC(=O)Cn2nc3ccc(Sc4ccccc4)nn3c2=O)cc1    -7.82
12) COc1ccc(NC(=O)CSc2nnc3c(=O)n(-c4cccc(F)c4)ccn23)cc1OC    -11.05
13) CCOc1ccc(-n2ccn3c(SCC(=O)c4ccccc4)nnc3c2=O)cc1    1.63
14) COc1cccc(Sc2nc3ccccc3n3c(=O)n(CC(=O)Nc4ccc(C)cc4)nc23)c1    -1.95
15) COc1cc(NC(=O)Cn2nc3ccc(SC4CCCCC4)nn3c2=O)cc(OC)c1    -6.19
16) O=C(Cn1nc2c(Oc3ccccc3)nccn2c1=O)Nc1ccccc1Cl    -6.19
17) COc1ccc(NC(=O)c2ccc3nn(CC(=O)Nc4ccc(S(C)(=O)=O)cc4)c(=O)n3c2)cc1    -6.83
18) CCc1ccccc1Sc1nccn2c(=O)n(CC(=O)Nc3ccc(Br)cc3)nc12    1.96
19) CCc1ccc(N(Cc2cccc(OC)c2)S(=O)(=O)c2cccn3cnnc23)cc1    2.31
20) O=C(CCc1nnc2ccc(-c3ccc(Cl)cc3)nn12)NCc1ccc(F)cc1Cl    -1.56
21) Cc1ccc(-n2ccn3c(=O)n(Cc4c(F)cccc4Cl)nc3c2=O)cc1C    -0.86
22) COc1cccc(Oc2nccn3c(=O)n(CC(=O)NC4CCCCC4)nc23)c1    -4.58
23) Cc1ccc(Oc2nccn3c(=O)n(CC(=O)Nc4cccc(Br)c4)nc23)cc1    -7.18
24) Cc1ccc(Oc2nccn3c(=O)n(CC(=O)Nc4ccc(Br)cc4)nc23)cc1    -5.29
25) O=S(=O)(c1ccc2nncn2c1)N(Cc1cccc(Cl)c1)c1ccc2c(c1)OCO2    -10.92
26) Cc1cccc(C)c1NC(=O)CSc1nnc2c3cc(-c4ccc(F)cc4)nn3ccn12    -12.65
27) Cc1ccc(Cl)cc1N1CCN(C(=O)CCc2nnc3c4cc(-c5ccccc5)nn4ccn23)CC1    -6.03
28) Cc1cccc(C)c1NC(=O)Cn1nc2c(N3CCSCC3)nc3ccccc3n2c1=O    -7.41
29) COc1ccc(CNC(=O)Cn2nc3c(SC4CCCCC4)nccn3c2=O)cc1    -2.77
30) COc1ccc(-c2nc(CSc3nc4ccccc4n4c(C(C)C)nnc34)c(C)o2)cc1OC    0.54
31) COc1ccc(CNC(=O)Cn2nc3c(N4CCN(c5ccccc5)CC4)nccn3c2=O)cc1    2.9
32) CCCCn1c(=O)c2sccc2n2c(CCC(=O)NC(C)C34CC5CC(CC(C5)C3)C4)nnc12 (stereo not given)    0.33
33) Cc1ccc(-n2ccn3c(SCC(=O)c4c[nH]c5ccccc45)nnc3c2=O)cc1C    3.16
34) Cc1ccc(C)c(CN(c2cccc(Cl)c2)S(=O)(=O)c2cccn3c(C)nnc23)c1    -2.76
35) CCc1nnc2c(S(=O)(=O)N(Cc3cccc(C)c3)c3cccc(Cl)c3)cccn12    -7.38
36) Cc1nnc2ccc(S(=O)(=O)N(Cc3ccccc3F)c3cc(F)cc(F)c3)cn12    -18.18
37) CCc1cccc(C)c1NC(=O)CSc1nnc2ccc(C(=O)Nc3cccc(F)c3)cn12    2
38) COc1cccc(-n2ccn3c(SCc4cccc(F)c4)nnc3c2=O)c1    -8.02
39) Cc1ccc(NC(=O)Cn2nc3c(Oc4ccccc4C)nccn3c2=O)cc1F    -0.85
40) Cn1c(=O)c2ccc(C(=O)NC3CCCCC3)cc2n2c(=O)n(CC#N)nc12    1.2

---

- Test system: Staphylococcus aureus
- MEASUREMENT PARAMETERS: Concentration 32 ug.mL-1;; ASSAY_TEST Inhibition of Bacterial Growth; detection method Absorption (OD600); MEDIA CAMHB; plate type 384well; NBS; CORNING #3640; time 18 hr
- Description: Antibacterial activity against Staphylococcus aureus MRSA ATCC 43300 (CO-ADD:GP_020); MIC in CAMBH media, using NBS plates, by OD(600)
Results with a measured potency or affinity are listed apart.
# reported Inhibition; entries follow
VALUE KIND: Inhibition (%)

1. Cc1cccc(NC(=O)CSc2nnc3ccc(C(=O)Nc4cccc(F)c4)cn23)c1    8.5
2. COc1cc(OC)c(NC(=O)Cn2nc3c(Oc4cccc(C)c4C)nccn3c2=O)cc1Cl    1.15
3. Cc1ccc(-c2cc3c4nn(CC(=O)Nc5ccccc5C)c(=O)n4ccn3n2)cc1C    5.58
4. COc1cccc(-n2ccn3c(SCC(=O)c4ccc(C)cc4)nnc3c2=O)c1    8.57
5. COc1cccc(Cn2nc3c(=O)n(-c4cccc(Cl)c4C)ccn3c2=O)c1    -6.87
6. O=C(NCc1ccccc1)c1ccc2nn(CC(=O)N3CCN(c4ccc(F)cc4)CC3)c(=O)n2c1    4.28
7. O=C(Cn1nc2c(SCc3ccccc3)nccn2c1=O)NC1CCCCC1    7.46
8. N#Cc1ccc(NC(=O)Cn2nc3c(Oc4ccccc4)nccn3c2=O)cc1    -0.45
9. O=C(Cn1nc2c(Sc3ccccc3)nccn2c1=O)Nc1ccc(Br)cc1F    5.84
10. COc1ccccc1Cn1c(=O)c2sccc2n2c(=O)n(Cc3cccc(Br)c3)nc12    -9.99
11. Cc1ccc(C)c(-c2cc3c4nnc(SCC(=O)Nc5cccc(Br)c5)n4ccn3n2)c1    0.42
12. Cc1ccc(-n2ccn3c(=O)n(Cc4ccccc4F)nc3c2=O)cc1C    8.2
13. O=S(=O)(c1ccc2nncn2c1)N(Cc1cccc(F)c1)c1ccc(F)c(F)c1    3.37
14. C=Cc1ccc(CN(c2ccc(F)cc2)S(=O)(=O)c2ccc3nnc(C)n3c2)cc1    -1.19
15. CC(C)Cn1c(=O)c2sccc2n2c(=O)n(Cc3ccc(N4CCCC4=O)cc3)nc12    -1.91
16. COc1ccc(C(=O)CSc2nnc3c(=O)n(-c4ccc(Br)cc4)ccn23)cc1    17.48
17. Cc1nc(-c2ccccn2)cc2nn(CC(=O)Nc3ccccc3C(F)(F)F)c(=O)n12    2.98
18. COc1cccc(-n2ccn3c(SCC(=O)c4c[nH]c5ccc(OC)cc45)nnc3c2=O)c1    11.97
19. Cc1ccc(NC(=O)Cn2nc3c(Oc4ccccc4)nccn3c2=O)c(Br)c1    1.04
20. COc1ccc(-c2cc3c4nn(CC(=O)Nc5cc(C)ccc5C)c(=O)n4ccn3n2)cc1    3.16

---

- Test system: Staphylococcus aureus
- MEASUREMENT PARAMETERS: Concentration 32 ug.mL-1;; ASSAY_TEST Inhibition of Bacterial Growth; detection method Absorption (OD600); MEDIA CAMHB; plate type 384well; NBS; CORNING #3640; time 18 hr
Results with a measured potency or affinity are listed apart.
VALUE KIND: Inhibition

1) Cc1cccc(Oc2nccn3c(=O)n(CC(=O)N4CCN(c5ccccc5F)CC4)nc23)c1C    -3.04%
2) CCc1nnc2c(SCC(=O)Nc3ccc(C(=O)OC)cc3)nc3ccccc3n12    1.34%
3) CCc1nnc2c(S(=O)(=O)N(Cc3cccc(F)c3)c3ccc(F)cc3)cccn12    -7.77%
4) CCOc1ccc(C(=O)CSc2nnc3c(=O)n(-c4ccc(F)cc4)ccn23)cc1    23.03%
5) C=Cc1ccc(CSc2nnc3c(=O)n(-c4cccc(OC)c4)ccn23)cc1    15.25%
6) O=c1n(Cc2nc(-c3ccc4c(c3)OCO4)no2)nc2ccc(-c3ccccc3)nn12    -9.1%
7) O=C(Cn1nc2nc(Nc3ccc(F)cc3)ccn2c1=O)N1CCOCC1    9.39%
8) O=c1n(Cc2ccc3c(c2)OCO3)nc2ccc(-c3ccccc3)nn12    12.41%
9) COc1ccc(CNC(=O)Cn2nc3c4cc(-c5ccc(Cl)cc5)nn4ccn3c2=O)cc1    6.34%
10) O=S(=O)(c1ccc2nncn2c1)N(Cc1cc(F)cc(F)c1)c1ccc(F)cc1    2.59%

Recorded values, source ChEMBL document CHEMBL4513146.
